The measurements presented in this section are drawn from the supplement of paper PMC3334620.

# assay_target: Zap1 (UniProt P47043)
# Sequence: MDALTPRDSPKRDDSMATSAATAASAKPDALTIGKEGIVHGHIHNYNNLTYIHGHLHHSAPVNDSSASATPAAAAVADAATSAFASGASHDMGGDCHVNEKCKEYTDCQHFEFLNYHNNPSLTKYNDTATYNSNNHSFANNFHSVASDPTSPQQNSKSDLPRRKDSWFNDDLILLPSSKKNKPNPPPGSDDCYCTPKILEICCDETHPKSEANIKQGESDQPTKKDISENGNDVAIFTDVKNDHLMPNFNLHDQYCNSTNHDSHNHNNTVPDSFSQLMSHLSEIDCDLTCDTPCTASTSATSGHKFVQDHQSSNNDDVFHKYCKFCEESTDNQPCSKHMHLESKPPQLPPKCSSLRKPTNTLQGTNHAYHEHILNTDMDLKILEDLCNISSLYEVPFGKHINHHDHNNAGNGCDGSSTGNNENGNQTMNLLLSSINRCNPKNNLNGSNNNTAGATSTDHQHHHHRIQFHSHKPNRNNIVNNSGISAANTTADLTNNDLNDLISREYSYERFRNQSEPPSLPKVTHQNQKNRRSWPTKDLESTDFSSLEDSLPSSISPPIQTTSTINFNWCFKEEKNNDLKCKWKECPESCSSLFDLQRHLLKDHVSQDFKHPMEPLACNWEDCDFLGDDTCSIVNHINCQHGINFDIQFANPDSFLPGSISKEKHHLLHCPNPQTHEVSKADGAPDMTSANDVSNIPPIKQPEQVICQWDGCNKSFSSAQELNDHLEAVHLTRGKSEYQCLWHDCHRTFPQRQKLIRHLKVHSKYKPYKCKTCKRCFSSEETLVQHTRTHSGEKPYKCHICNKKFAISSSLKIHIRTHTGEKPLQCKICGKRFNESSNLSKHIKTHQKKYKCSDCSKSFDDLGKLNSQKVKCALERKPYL
# assay_explanation: PBM E-score (8-mer binding enrichment) (E-score (-0.5 to 0.5)); higher = stronger / more preferred TF binding
# measurement_conditions: protein concentration: 200 nM; construct: GST-full length
Over roughly 33,000 sequences, “E-score (-0.5 to 0.5)” has its median near -0.021; the highest 2% begin near 0.32. Only a selection was taken, and the highest values are over-represented in it overall.

# residue_sequence, PBM E-score
data = [
    ("AAGTAACT", -0.0363),
    ("GCTGTTAC", -0.104),
    ("GCGGTTCC", 0.217),
    ("AAGTAACG", 0.052),
    ("CCGGTTAA", 0.261),
    ("AAGTAACC", 0.393),
    ("CCGGTTAC", 0.398),
    ("GAGTAACC", 0.399),
    ("CAGTAACG", 0.0273),
    ("CAGTAACA", -0.0862),
    ("CAGTAACC", 0.44),
]

====

# assay_target: Zap1 (UniProt P47043)
# Sequence: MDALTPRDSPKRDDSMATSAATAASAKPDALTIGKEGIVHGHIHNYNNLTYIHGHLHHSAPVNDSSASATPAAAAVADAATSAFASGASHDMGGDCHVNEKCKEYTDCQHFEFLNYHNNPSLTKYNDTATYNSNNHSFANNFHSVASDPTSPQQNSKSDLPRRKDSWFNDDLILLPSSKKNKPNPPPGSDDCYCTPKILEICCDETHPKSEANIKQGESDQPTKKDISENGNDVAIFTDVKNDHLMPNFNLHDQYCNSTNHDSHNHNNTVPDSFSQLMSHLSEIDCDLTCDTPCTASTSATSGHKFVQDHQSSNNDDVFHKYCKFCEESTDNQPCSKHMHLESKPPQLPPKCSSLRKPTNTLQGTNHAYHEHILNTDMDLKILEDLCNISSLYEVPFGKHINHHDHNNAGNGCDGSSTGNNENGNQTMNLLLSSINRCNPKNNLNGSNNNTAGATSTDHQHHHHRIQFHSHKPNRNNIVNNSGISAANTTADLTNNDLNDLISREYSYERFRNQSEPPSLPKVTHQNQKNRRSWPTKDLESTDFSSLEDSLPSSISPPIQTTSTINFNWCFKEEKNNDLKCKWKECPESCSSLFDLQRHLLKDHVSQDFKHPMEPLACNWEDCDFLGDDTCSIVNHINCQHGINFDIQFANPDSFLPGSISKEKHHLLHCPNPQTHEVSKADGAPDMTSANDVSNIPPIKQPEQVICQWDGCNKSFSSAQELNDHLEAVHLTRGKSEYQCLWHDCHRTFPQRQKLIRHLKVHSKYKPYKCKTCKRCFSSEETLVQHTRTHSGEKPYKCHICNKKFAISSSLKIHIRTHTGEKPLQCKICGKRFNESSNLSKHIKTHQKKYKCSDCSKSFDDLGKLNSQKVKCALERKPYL
# assay_explanation: PBM E-score (8-mer binding enrichment) (E-score (-0.5 to 0.5)); higher = stronger / more preferred TF binding
# measurement_conditions: protein concentration: 200 nM; construct: GST-full length
The full ranking holds about 33,000 sequences; the median of “E-score (-0.5 to 0.5)” is about -0.021, and the highest 2% start at about 0.32. Shown is part of a subset that was picked to be rich in the highest values.
Each entry below lists one item and its recorded PBM E-score value.

# residue_sequence, assay_target, PBM E-score
rows = [
    ("GCTTAACA", "Zap1 (UniProt P47043)", -0.0361),
    ("AGAGATTA", "Zap1 (UniProt P47043)", -0.0587),
    ("GATGGTAC", "Zap1 (UniProt P47043)", 0.199),
    ("ACGTACCG", "Zap1 (UniProt P47043)", -0.111),
    ("AAGTACCG", "Zap1 (UniProt P47043)", 0.134),
    ("AAGGGTAT", "Zap1 (UniProt P47043)", 0.421),
    ("GGAGGGGA", "Zap1 (UniProt P47043)", -0.0565),
    ("CGAAGCAA", "Zap1 (UniProt P47043)", -0.00093),
    ("AGGTACCG", "Zap1 (UniProt P47043)", 0.43),
    ("CGGGGTAA", "Zap1 (UniProt P47043)", 0.299),
    ("AGAGGGTA", "Zap1 (UniProt P47043)", 0.29),
    ("ACGTCTGC", "Zap1 (UniProt P47043)", -0.272),
    ("GCATGGAA", "Zap1 (UniProt P47043)", -0.169),
    ("GAGGGTGC", "Zap1 (UniProt P47043)", 0.138),
    ("TACCCAGA", "Zap1 (UniProt P47043)", 0.265),
    ("AGGTACCC", "Zap1 (UniProt P47043)", 0.451),
    ("ACCTAGGG", "Zap1 (UniProt P47043)", 0.119),
    ("AAATAGCT", "Zap1 (UniProt P47043)", -0.141),
    ("AAGTACCT", "Zap1 (UniProt P47043)", 0.213),
    ("AAGGGTGT", "Zap1 (UniProt P47043)", 0.316),
    ("GGAGGGTA", "Zap1 (UniProt P47043)", 0.346),
    ("AAATGGCT", "Zap1 (UniProt P47043)", 0.00044),
    ("GCGCCTTA", "Zap1 (UniProt P47043)", -0.066),
    ("GCATAGGA", "Zap1 (UniProt P47043)", -0.135),
    ("CCTTATAC", "Zap1 (UniProt P47043)", 0.0827),
    ("CGGTACCC", "Zap1 (UniProt P47043)", 0.414),
    ("CGGTACAC", "Zap1 (UniProt P47043)", 0.0303),
    ("ACCTAACC", "Zap1 (UniProt P47043)", 0.269),
    ("GCCTAACC", "Zap1 (UniProt P47043)", 0.125),
    ("GCTTAACC", "Zap1 (UniProt P47043)", 0.327),
    ("GGCCAGCC", "Zap1 (UniProt P47043)", -0.142),
    ("AAGGGTAA", "Zap1 (UniProt P47043)", 0.393),
    ("ACGTACCT", "Zap1 (UniProt P47043)", -0.126),
    ("CCTTAACC", "Zap1 (UniProt P47043)", 0.438),
    ("TAGCAAAA", "Zap1 (UniProt P47043)", 0.0555),
    ("GAATGGCC", "Zap1 (UniProt P47043)", 0.188),
    ("CCCTAACC", "Zap1 (UniProt P47043)", 0.33),
    ("AGGTACCT", "Zap1 (UniProt P47043)", 0.443),
    ("GGGGGTAA", "Zap1 (UniProt P47043)", -0.0883),
    ("ACTGTTCT", "Zap1 (UniProt P47043)", -0.0178),
    ("CGTATCCA", "Zap1 (UniProt P47043)", -0.133),
    ("AGGTACTC", "Zap1 (UniProt P47043)", 0.261),
    ("TGGGGTAA", "Zap1 (UniProt P47043)", 0.347),
    ("GGAGGGAA", "Zap1 (UniProt P47043)", -0.213),
    ("ATGTACCC", "Zap1 (UniProt P47043)", 0.216),
    ("GAGGGTAC", "Zap1 (UniProt P47043)", 0.374),
]
